Catalogue of compounds with associated growth inhibition
# test-protocol: NCI Yeast Anticancer Drug Screen. Data for the rad50 strain (AID 155);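 also: 0% = growth of vehicle-only cultures of the same strain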
# protocol-conditions: S. cerevisiae rad50 strain growth inhibition; at 50.0 µM; hits give high values
About 79,000 compounds went through this panel and 15% of them were active in at least one assay; those are over-represented in the sample as a whole. Calls of active or inactive are those of the source. Rule as the data show it: active = growth inhibition above about 70%; inactive = the rest.

Look over these answered cases.
Query string: Look up growth inhibition: COc1ccc(OC)c(NC(=O)Nc2nccs2)c1
Result string: 1.9% (inactive)

Query string: Ic1ccc(Nc2ncnc3sc4c(c23)CCCC4)cc1 , same question.
Result string: 24.2% (inactive)

Further cases:
Query string: Look up growth inhibition: Cc1cccc[n+]1[O-]
Result string: 10.8% (inactive)

Query string: COc1cc(C2c3cc4c(c(OS(=O)(=O)O)c3CC3COC(=O)C32)OCO4)cc(OC)c1OC (stereo not given) , same question.
Result string: 6.3% (inactive)

Query string: C1CCC(C2CCCC[N-]2)[N-]C1.C1CCC(C2CCCC[N-]2)[N-]C1.O=C(O)C(=O)O.[Ru+4] (stereo not given) , same question.
Result string: 31.8% (inactive)

Query string: O=C(Nc1ccc(Cl)cc1)c1ccc(Cl)c(Cl)c1 , same question.
Result string: -1.6% (inactive)

Query string: CCCOC(=O)/C=C/C(=O)N1CC(C)N(C(=O)/C=C/C(=O)OCCC)CC1C (stereo not given) , same question.
Result string: 3.85% (inactive)

Query string: CSc1cc(=O)[nH]c(=O)[nH]1 , same question.
Result string: 16.9% (inactive)

Query string: CC(=O)OC1(C(=O)O)CCCCC1 , same question.
Result string: 5.8% (inactive)

Query string: Cc1cc(C)c2ccc(=O)[nH]c2n1 , same question.
Result string: -2.8% (inactive)

Query string: O=C(O)C(O)c1ccc(Cl)cc1Cl (stereo not given) , same question.
Result string: 1.3% (inactive)

====

# test-protocol: NCI Yeast Anticancer Drug Screen. Data for the rad50 strain (AID 155);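 also: 0% = growth of vehicle-only cultures of the same strain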
# protocol-conditions: S. cerevisiae rad50 strain growth inhibition; at 50.0 µM; hits give high values
The panel holds about 79,000 compounds, 15% with a hit somewhere; the sample as a whole holds those more often.
result-type: growth inhibition (%)
The answer is to be given in %; state only the numeric part.

Query string: Look up growth inhibition: CN(N=O)C(=O)NCc1ccc(Cl)cc1
Result string: -0.1

Query string: N#CC(O)CCOCc1ccccc1 (stereo unspecified) , same question.
Result string: 9

Query string: CN(C)C(=O)OCC1COc2ccccc2O1 (stereo unspecified) , same question.
Result string: 15

Query string: CC(C(=O)c1ccc(Cl)cc1)[n+]1cc(Br)cc(Br)c1 (stereo unspecified) , same question.
Result string: -22.6

Query string: COc1ccc(-c2c(C(C)=O)c(-c3ccccc3)n(C3OC(CO)C(O)C(O)C3O)c(=S)c2C#N)cc1 (stereo unspecified) , same question.
Result string: -17.7

Further cases:
Query string: Look up growth inhibition: C=CCN1/C(=C(\C#N)c2nc3ccccc3[nH]2)Sc2c1nc[nH]c2=O
Result string: -51.6

====

# test-protocol: NCI Yeast Anticancer Drug Screen. Data for the bub3 strain (AID 167)
# protocol-conditions: S. cerevisiae bub3 mutant strain, at 50.0 µM, hits give high values
The panel holds about 79,000 compounds, 15% with a hit somewhere; the sample as a whole holds those more often.
Catalogue of compounds with associated growth inhibition
The answer is to be given in %; state only the numeric part.

Look over these answered cases.
Query string: Look up growth inhibition: CC(=O)Nc1ccc(CCc2ccc(NC(C)=O)cc2)cc1
Result string: 5.6

Query string: CCSC(SCC)C(SCC)C(OC(=O)c1ccccc1)C(OC(=O)c1ccccc1)C(COC(=O)c1ccccc1)OC(=O)c1ccccc1 (stereo unspecified) , same question.
Result string: 4.25

Query string: Nc1cccc(CC(NC(=O)c2ccccc2)C(=O)O)c1 (stereo unspecified) , same question.
Result string: 28.6

Query string: O=C(CN=C(CN(c1ccccc1)c1ccccc1)Oc1c(Cl)cc(Cl)cc1Cl)n1cnc2ccccc21 , same question.
Result string: -46.4

Query string: CC(C)(C)[Si](C)(C)OCCc1ccccc1C1CC2(S(=O)(=O)c3ccccc3)ON1CC2S(=O)(=O)c1ccccc1 (stereo unspecified) , same question.
Result string: 8.4

Further cases:
Query string: Look up growth inhibition: COc1ccc(O)c(/C=N/NC(N)=S)c1
Result string: -24.8

Query string: CC(=O)NC(CCCN)C(=O)NCc1ccccc1 (stereo unspecified) , same question.
Result string: -3.45

Query string: O=C1Cc2ccccc2CN1 , same question.
Result string: 2.15

Query string: N#Cc1c(N)[nH]c(=S)c(C#N)c1-c1ccccc1 , same question.
Result string: 31.4

Query string: ClC(=Nc1ccccc1)c1cc(N2CCOCC2)ccn1 , same question.
Result string: 19.1

Query string: CC12CCC(=O)OC1(C)OC(=O)CC2 (stereo unspecified) , same question.
Result string: 7.7

meta.source: PubChem BioAssay (NCI)
